Measured values drawn from patent US10202374B2 for this set.

// IC50 lookup, one value per entry
# Target or test system: PI3K-δ (Homo sapiens, UniProt O00329)
# Sequence (O00329 whole entry, species assumed): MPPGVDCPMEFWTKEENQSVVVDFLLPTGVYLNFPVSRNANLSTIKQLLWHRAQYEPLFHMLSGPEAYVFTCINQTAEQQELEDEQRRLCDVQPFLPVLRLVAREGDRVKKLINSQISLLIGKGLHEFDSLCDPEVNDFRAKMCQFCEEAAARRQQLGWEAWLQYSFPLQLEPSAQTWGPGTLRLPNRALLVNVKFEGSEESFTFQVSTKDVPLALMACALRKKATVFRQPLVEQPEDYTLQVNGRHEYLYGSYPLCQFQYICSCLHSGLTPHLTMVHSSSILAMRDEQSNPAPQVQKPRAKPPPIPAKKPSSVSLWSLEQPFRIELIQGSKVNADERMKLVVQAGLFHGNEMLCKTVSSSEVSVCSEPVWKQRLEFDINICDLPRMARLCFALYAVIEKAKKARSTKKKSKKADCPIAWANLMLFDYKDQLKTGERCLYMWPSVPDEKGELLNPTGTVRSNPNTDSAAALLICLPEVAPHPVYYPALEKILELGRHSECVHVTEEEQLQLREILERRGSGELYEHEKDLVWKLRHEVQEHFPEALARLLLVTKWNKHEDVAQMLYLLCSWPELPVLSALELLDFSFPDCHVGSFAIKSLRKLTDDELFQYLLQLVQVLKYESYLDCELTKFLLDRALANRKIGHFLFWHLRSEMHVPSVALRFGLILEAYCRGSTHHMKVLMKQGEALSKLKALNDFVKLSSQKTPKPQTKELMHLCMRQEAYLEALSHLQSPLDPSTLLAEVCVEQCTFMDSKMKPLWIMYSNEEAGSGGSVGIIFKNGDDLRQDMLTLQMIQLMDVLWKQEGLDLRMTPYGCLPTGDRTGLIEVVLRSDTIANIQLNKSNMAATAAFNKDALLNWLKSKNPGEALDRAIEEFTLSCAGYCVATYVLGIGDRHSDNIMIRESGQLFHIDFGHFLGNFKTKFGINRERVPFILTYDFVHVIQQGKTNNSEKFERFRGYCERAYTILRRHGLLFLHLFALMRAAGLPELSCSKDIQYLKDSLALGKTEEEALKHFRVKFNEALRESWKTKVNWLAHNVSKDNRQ
# Sequence (P27986 whole entry partner, species assumed): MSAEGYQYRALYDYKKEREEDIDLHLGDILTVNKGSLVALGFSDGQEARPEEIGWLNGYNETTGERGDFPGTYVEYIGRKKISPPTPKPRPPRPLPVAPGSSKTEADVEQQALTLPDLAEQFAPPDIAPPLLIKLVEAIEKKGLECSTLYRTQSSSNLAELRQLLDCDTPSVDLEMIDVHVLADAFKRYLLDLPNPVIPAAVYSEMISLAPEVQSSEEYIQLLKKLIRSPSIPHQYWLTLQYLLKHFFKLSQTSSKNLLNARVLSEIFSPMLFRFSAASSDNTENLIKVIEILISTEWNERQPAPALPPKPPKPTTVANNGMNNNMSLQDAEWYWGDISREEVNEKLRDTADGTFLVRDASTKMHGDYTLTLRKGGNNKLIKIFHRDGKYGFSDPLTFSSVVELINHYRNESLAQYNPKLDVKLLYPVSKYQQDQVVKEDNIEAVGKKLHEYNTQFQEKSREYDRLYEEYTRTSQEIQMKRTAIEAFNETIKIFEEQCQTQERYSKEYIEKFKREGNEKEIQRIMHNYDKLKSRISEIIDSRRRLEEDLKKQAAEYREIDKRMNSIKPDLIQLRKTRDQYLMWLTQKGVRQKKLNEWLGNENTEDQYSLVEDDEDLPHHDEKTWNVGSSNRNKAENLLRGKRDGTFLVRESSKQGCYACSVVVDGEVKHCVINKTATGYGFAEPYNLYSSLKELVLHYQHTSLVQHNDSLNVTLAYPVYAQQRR
Outcome measure: IC50

> print(dat)
                            compound.smiles                  target.or.test.system  outcome.measure   result
1  CC(=O)c1ccc(-c2ccc3ncnc(Nc4ccc(CC#N)cc4)c3c2)cc1  PI3K-δ (Homo sapiens, UniProt O00329)             IC50  > 10 µM
2  N#CCc1ccc(Nc2ncnc3ccc(-c4ccc5c(c4)OCO5)cc23)cc1  PI3K-δ (Homo sapiens, UniProt O00329)             IC50  > 10 µM
3  N#CCc1ccc(Nc2ncnc3ccc(-c4cccc(O)c4)cc23)cc1  PI3K-δ (Homo sapiens, UniProt O00329)             IC50  0.27 µM
4  N#CCc1ccc(Nc2ncnc3ccc(-c4cncc5ccccc45)cc23)cc1  PI3K-δ (Homo sapiens, UniProt O00329)             IC50  0.88 µM
5  N#CCc1ccc(Nc2ncnc3ccc(-c4ccc5c(c4)OCCO5)cc23)cc1  PI3K-δ (Homo sapiens, UniProt O00329)             IC50  > 10 µM
6  C=Cc1ccc(-c2ccc3ncnc(Nc4ccc(CC#N)cc4)c3c2)cc1  PI3K-δ (Homo sapiens, UniProt O00329)             IC50  > 10 µM

----------
# Target or test system: PI3K-β (Homo sapiens)
# Sequence (P42338 whole entry, species assumed): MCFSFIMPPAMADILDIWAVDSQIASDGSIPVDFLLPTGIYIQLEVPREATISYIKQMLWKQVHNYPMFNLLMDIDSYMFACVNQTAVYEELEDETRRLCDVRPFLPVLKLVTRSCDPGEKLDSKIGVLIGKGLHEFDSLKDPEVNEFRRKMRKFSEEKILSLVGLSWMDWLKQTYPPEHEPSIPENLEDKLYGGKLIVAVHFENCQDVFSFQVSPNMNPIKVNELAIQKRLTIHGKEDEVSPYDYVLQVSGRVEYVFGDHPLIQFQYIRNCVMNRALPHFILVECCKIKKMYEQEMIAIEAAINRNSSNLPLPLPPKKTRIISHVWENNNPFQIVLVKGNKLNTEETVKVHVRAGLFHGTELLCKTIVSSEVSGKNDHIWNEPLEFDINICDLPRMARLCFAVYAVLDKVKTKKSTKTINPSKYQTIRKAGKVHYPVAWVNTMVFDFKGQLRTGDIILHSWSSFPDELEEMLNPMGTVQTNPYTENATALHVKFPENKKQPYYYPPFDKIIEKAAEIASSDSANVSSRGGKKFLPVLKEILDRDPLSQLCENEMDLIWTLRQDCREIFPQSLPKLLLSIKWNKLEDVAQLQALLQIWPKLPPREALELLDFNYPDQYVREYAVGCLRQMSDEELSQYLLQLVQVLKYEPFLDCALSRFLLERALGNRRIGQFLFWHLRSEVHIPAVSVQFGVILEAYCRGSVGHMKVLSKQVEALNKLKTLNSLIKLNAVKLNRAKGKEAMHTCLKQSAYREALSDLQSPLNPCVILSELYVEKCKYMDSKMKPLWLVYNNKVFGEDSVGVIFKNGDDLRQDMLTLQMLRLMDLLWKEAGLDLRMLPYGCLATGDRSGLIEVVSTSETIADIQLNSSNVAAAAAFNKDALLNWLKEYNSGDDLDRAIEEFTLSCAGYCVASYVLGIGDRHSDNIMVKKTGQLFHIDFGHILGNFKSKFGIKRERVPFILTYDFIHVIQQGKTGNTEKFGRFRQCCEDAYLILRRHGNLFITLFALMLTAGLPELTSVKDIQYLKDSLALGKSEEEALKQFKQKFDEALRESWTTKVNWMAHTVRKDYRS
# Sequence (P27986 whole entry partner, species assumed): as the sequence (P27986 whole entry partner, species assumed) above
// IC50 lookup, one value per entry
Outcome measure: IC50

> print(dat)
                                   molecule  outcome.measure   result
1  C=Cc1ccc(-c2ccc3ncnc(Nc4ccc(CC#N)cc4)c3c2)cc1 [Compound 13]             IC50  > 10 µM
2  N#CCc1ccc(Nc2ncnc3ccc(-c4cccc([N+](=O)[O-])c4)cc23)cc1 [Compound 11]             IC50  > 10 µM
3  N#CCc1ccc(Nc2ncnc3ccc(-c4cccc(O)c4)cc23)cc1 [Compound 10]             IC50  0.67 µM
4  N#CCc1ccc(Nc2ncnc3ccc(-c4ccc5c(c4)OCO5)cc23)cc1 [Compound 21]             IC50  > 10 µM
5  N#CCc1ccc(Nc2ncnc3ccc(-c4ccc5c(c4)OCCO5)cc23)cc1 [Compound 20]             IC50  > 10 µM

----------
# Target or test system: PI3K-α (Homo sapiens, UniProt P42336)
# Sequence (P42336 whole entry): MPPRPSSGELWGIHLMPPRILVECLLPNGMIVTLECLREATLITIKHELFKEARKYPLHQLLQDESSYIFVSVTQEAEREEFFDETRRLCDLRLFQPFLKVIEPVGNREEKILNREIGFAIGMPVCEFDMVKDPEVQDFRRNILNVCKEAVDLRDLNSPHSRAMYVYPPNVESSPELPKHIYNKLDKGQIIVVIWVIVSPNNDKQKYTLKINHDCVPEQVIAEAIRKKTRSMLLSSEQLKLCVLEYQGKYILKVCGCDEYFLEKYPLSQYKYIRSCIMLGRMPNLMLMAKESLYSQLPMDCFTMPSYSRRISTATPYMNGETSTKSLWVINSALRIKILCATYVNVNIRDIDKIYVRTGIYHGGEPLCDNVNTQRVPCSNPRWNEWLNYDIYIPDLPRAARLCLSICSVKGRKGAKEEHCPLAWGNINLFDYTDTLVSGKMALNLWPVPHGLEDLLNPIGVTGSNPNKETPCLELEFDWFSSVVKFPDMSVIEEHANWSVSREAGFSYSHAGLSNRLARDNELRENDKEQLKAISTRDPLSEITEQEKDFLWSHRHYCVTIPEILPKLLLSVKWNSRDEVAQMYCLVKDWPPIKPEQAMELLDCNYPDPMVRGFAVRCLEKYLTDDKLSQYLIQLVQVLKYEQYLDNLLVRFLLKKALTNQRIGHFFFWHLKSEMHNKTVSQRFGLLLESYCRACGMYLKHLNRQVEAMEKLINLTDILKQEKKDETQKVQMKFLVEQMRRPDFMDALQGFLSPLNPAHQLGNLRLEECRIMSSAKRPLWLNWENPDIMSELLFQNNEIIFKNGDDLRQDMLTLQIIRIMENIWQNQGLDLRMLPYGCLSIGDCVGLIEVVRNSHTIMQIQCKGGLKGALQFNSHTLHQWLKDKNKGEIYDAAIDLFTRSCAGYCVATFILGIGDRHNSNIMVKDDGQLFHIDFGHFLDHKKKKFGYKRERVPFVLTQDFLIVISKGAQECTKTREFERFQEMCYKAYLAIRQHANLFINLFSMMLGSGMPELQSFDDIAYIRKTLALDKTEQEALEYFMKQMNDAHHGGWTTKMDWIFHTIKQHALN
# Sequence (P27986 whole entry partner): as the sequence (P27986 whole entry partner, species assumed) above
# Test name: PI3K-α assay (ADP-Glo)
# Type: biochemical
# Condition description: 0.5 μM, preliminary screening
// inhibition at 0.5 µM lookup, one value per entry
Outcome measure: inhibition at 0.5 µM (%)

> print(dat)
                                   compound  units.of.measure  result.modifier  result.number
1  N#CCc1ccc(Nc2ncnc3ccc(-c4ccc(F)cc4F)cc23)cc1 [Compound 7]                 %                =             17
2  N#CCc1ccc(Nc2ncnc3ccc(-c4cnc5ccccc5c4)cc23)cc1 [Compound 27]                 %                <              0
3  N#CCc1ccc(Nc2ncnc3ccc(-c4ccncc4)cc23)cc1 [Compound 28]                 %                >             40
4  N#CCc1ccc(Nc2ncnc3ccc(-c4ccc(-c5ccccc5)cc4F)cc23)cc1 [Compound 18]                 %                =           20.3
5  C=Cc1ccc(-c2ccc3ncnc(Nc4ccc(CC#N)cc4)c3c2)cc1 [Compound 13]                 %                =           36.4

----------
Test system PI3K-α (Homo sapiens), IC50 listed for each of the compounds.
Outcome measure: IC50

> print(dat)
                            compound.smiles  outcome.measure      result
1  N#CCc1ccc(Nc2ncnc3ccc(-c4ccc5[nH]ccc5c4)cc23)cc1             IC50      201 nM
2  N#CCc1ccc(Nc2ncnc3ccc(-c4ccncc4)cc23)cc1             IC50      704 nM
3  CC(=O)Nc1cccc(-c2ccc3ncnc(Nc4ccc(CC#N)cc4)c3c2)c1             IC50      475 nM
4  C=Cc1ccc(-c2ccc3ncnc(Nc4ccc(CC#N)cc4)c3c2)cc1             IC50  > 10000 nM
5  N#CCc1ccc(Nc2ncnc3ccc(-c4cccc(O)c4)cc23)cc1             IC50      115 nM
